# ASSAY PROTOCOL: in vitro
# PROTOCOL CONDITIONS: rat, brain homogenate, half life (t1/2) in rat brain homogenate
READOUT NAME: half-life (h)
// units = h; emit number, no label

Q: Look up and state reported half-life for N=C(N)NCCC[C@@H]1NC(=O)[C@H](CCCNC(=N)N)NC(=O)[C@H](NC(=O)[C@H](Cc2ccccc2)NC(=O)CNC(=O)CNC(=O)[C@H](Cc2ccc(O)cc2)NCc2ccccc2)CC(=O)NC[C@@H](C(=O)N[C@@H](CCCNC(=N)N)C(=O)N2CCC[C@H]2C(=O)N[C@@H](CCCCN)C(N)=O)NC1=O
Ans: 1.17

###

# PROTOCOL CONDITIONS: rat, blood
Square brackets hold non-standard residues; d marks the D form. Peptide text beside a SMILES is read from it.
READOUT NAME: half-life

Q: Report half-life for CC(=O)N[C@@H](Cc1ccccc1)C(=O)N[C@@H](Cc1ccccc1)C(=O)N[C@@H](Cc1ccccc1)C(=O)N[C@@H](CCCNC(=N)N)C(=O)N[C@@H](CC(C)C)C(=O)N[C@@H](CCCNC(=N)N)C(=O)N[C@@H](CCCNC(=N)N)C(=O)N[C@H](C)C(=O)N[C@@H](CCCNC(=N)N)C(=O)N1CCC[C@H]1C(=O)N[C@@H](CCCCN)C(N)=O [Arodyn] (Ac-FFFRLRR[dA]RPK-NH2)
Ans: < 2 min

###

Would you mind telling me the reported efflux ratio of each entry?
# ASSAY PROTOCOL: BBMEC permeability (in-vitro model of the blood-brain barrier)
Square brackets hold non-standard residues; d marks the D form. Peptide text beside a SMILES is read from it.
Number, no unit, nothing else.

Q: Entry CC[C@H](C)[C@H](NC(=O)[C@H](CCCN=C(N)N)NC(=O)[C@H](CCCN=C(N)N)NC(=O)[C@H](CC(C)C)NC(=O)[C@H](Cc1ccccc1)NC(=O)CNC(=O)CNC(=O)[C@@H](N)Cc1ccc(O)cc1)C(=O)N[C@@H](CCCN=C(N)N)C(=O)N1CCC[C@H]1C(=O)N[C@@H](CCCCN)C(N)=O [Dyn A-(1-11)NH2, Dynorphin A-(1-11) amide] needs its efflux ratio filled in; supply it.
Ans: 0.9

Q: Look up efflux ratio of CC(=O)N[C@@H](Cc1ccccc1)C(=O)N[C@@H](Cc1ccccc1)C(=O)N[C@@H](Cc1ccccc1)C(=O)N[C@@H](CCCNC(=N)N)C(=O)N[C@@H](CC(C)C)C(=O)N[C@@H](CCCNC(=N)N)C(=O)N[C@@H](CCCNC(=N)N)C(=O)N[C@H](C)C(=O)N[C@@H](CCCNC(=N)N)C(=O)N1CCC[C@H]1C(=O)N[C@@H](CCCCN)C(N)=O [Arodyn] (Ac-FFFRLRR[dA]RPK-NH2) and report it.
Ans: 1.6

Q: // Input: CC[C@H](C)[C@H](NC(=O)[C@H](CCCNC(=N)N)NC(=O)[C@H](CCCNC(=N)N)NC(=O)[C@H](CC(C)C)NC(=O)[C@H](Cc1ccccc1)NC(=O)CNC(=O)CNC(=O)[C@H](Cc1ccc(O)cc1)NC(C)=O)C(=O)N[C@@H](CCCNC(=N)N)C(=O)N1CCC[C@H]1C(=O)N[C@@H](CCCCN)C(N)=O . Output its efflux ratio only.
Ans: 2.4

###

# ASSAY PROTOCOL: BBMEC permeability (in-vitro model of the blood-brain barrier)
# PROTOCOL CONDITIONS: pH 7.4
Square brackets hold non-standard residues; d marks the D form. Peptide text beside a SMILES is read from it.
READOUT NAME: Papp (×10⁻⁶ cm/s)
Could you give me the number in ×10⁻⁶ cm/s? Just the number is fine.

Q: Return reported Papp. Input molecule: CC(=O)N[C@@H](Cc1ccccc1)C(=O)N[C@@H](Cc1ccccc1)C(=O)N[C@@H](Cc1ccccc1)C(=O)N[C@@H](CCCNC(=N)N)C(=O)N[C@@H](CC(C)C)C(=O)N[C@@H](CCCNC(=N)N)C(=O)N[C@@H](CCCNC(=N)N)C(=O)N[C@H](C)C(=O)N[C@@H](CCCNC(=N)N)C(=O)N1CCC[C@H]1C(=O)N[C@@H](CCCCN)C(N)=O [Arodyn] (Ac-FFFRLRR[dA]RPK-NH2)
Ans: 7.6

Q: Return Papp (reported value) for this molecule: CC[C@H](C)[C@H](NC(=O)[C@H](CCCNC(=N)N)NC(=O)[C@H](CCCNC(=N)N)NC(=O)[C@H](CC(C)C)NC(=O)[C@H](Cc1ccccc1)NC(=O)CNC(=O)CNC(=O)[C@H](Cc1ccc(O)cc1)NC(C)=O)C(=O)N[C@@H](CCCNC(=N)N)C(=O)N1CCC[C@H]1C(=O)N[C@@H](CCCCN)C(N)=O
Ans: 7.1

Q: Give the reported value of Papp for this record: CC[C@H](C)[C@H](NC(=O)[C@H](CCCN=C(N)N)NC(=O)[C@H](CCCN=C(N)N)NC(=O)[C@H](CC(C)C)NC(=O)[C@H](Cc1ccccc1)NC(=O)CNC(=O)CNC(=O)[C@@H](N)Cc1ccc(O)cc1)C(=O)N[C@@H](CCCN=C(N)N)C(=O)N1CCC[C@H]1C(=O)N[C@@H](CCCCN)C(N)=O [Dyn A-(1-11)NH2, Dynorphin A-(1-11) amide]
Ans: 3.8
